test system: A498; assay: In vitro growth inhibition of human kidney carcinoma cell line, A498 with low levels of folate receptors; format: functional, cell-based
value kind: pIC50
Worth noting: pIC50 values are minus log10 of concentrations stated in mol/L.

Answered examples (2):
> print(dat)
                                   molecule  study.system  number
1  Nc1nc(O)c2nc(CNc3ccc(C(=O)NC(CCCCNP(=O)(OCc4ccc([N+](=O)[O-])o4)N(CCBr)CCBr)C(=O)O)cc3)cnc2n1 (stereo not drawn)          A498    4.96
2  NC(CCCCNP(=O)(OCc1ccc([N+](=O)[O-])o1)N(CCCl)CCCl)C(=O)O (stereo not drawn)          A498    4.59

From here, focus on the item given below.
Param item: CCCNP(=O)(OCc1ccc([N+](=O)[O-])o1)N(CCCl)CCCl (stereo not drawn) ; param system: A498; output pIC50: 5.85

---

test system: A549; assay: In vitro growth inhibition of human lung carcinoma cell line, A549 with low levels of folate receptors; type: functional, cell-based
pIC50 for assorted molecules
Worth noting: pIC50 values are minus log10 of concentrations stated in mol/L.

Answered examples (2):
> print(dat)
                                   molecule  study.system  value.kind  number
1  CCCNP(=O)(OCc1ccc([N+](=O)[O-])o1)N(CCCl)CCCl (stereo not drawn)          A549       pIC50    5.72
2  Nc1nc(O)c2nc(CNc3ccc(C(=O)NC(CCCCNP(=O)(OCc4ccc([N+](=O)[O-])o4)N(CCBr)CCBr)C(=O)O)cc3)cnc2n1 (stereo not drawn)          A549       pIC50    4.96

From here, focus on the item given below.
// sample NC(CCCCNP(=O)(OCc1ccc([N+](=O)[O-])o1)N(CCCl)CCCl)C(=O)O (stereo not drawn) , its pIC50 was 4.39

---

pIC50 for assorted molecules
tested on: PC-3; assay: In vitro growth inhibition of human tumor cell line, PC3; type: functional, cell-based
Worth noting: pIC50 values are minus log10 of concentrations stated in mol/L.

Answered examples (2):
> print(dat)
                                   molecule  number
1  CCCNP(=O)(OCc1ccc([N+](=O)[O-])o1)N(CCCl)CCCl (stereo not drawn)    5.64
2  Nc1nc(O)c2nc(CNc3ccc(C(=O)NC(CCCCNP(=O)(OCc4ccc([N+](=O)[O-])o4)N(CCBr)CCBr)C(=O)O)cc3)cnc2n1 (stereo not drawn)    4.96

From here, focus on the item given below.
Param item: NC(CCCCNP(=O)(OCc1ccc([N+](=O)[O-])o1)N(CCCl)CCCl)C(=O)O (stereo not drawn) ; param system: PC-3; output pIC50: 4.68

---

assay: In vitro growth inhibition of human ovarian carcinoma cell line, IGROV with over expressed folate receptors; assay type: functional
value kind: pIC50
Worth noting: pIC50 values are minus log10 of concentrations stated in mol/L.

// sample Nc1nc(O)c2nc(CNc3ccc(C(=O)NC(CCCCNP(=O)(OCc4ccc([N+](=O)[O-])o4)N(CCBr)CCBr)C(=O)O)cc3)cnc2n1 (stereo unspecified) , its pIC50 was 6.08
